target: Metallo-beta-lactamase type 2 (Bacteria) (UniProt C7C422); experiment: Inhibition of NDM-1 (unknown origin) using nitrocefin as substrate assessed as residual activity at 64 ug/ml preincubated for 15 mins followed by substrate addition by absorbance based assay relative to control; details: dose 64.0 µg/ml
Sequence (C7C422 whole entry): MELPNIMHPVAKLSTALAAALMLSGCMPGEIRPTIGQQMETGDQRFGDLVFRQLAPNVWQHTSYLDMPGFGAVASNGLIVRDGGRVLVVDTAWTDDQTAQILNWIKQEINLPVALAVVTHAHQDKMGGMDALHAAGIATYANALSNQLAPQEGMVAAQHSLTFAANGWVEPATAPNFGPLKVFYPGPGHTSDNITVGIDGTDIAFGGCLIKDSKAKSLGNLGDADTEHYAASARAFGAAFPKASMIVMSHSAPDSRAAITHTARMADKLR
Each record here notes measured Activity.
Readout Type: Activity (%)

• O=C(O)C1=C(C[Se]c2ccccc2C(=O)Nc2ccccc2)CS[C@@H]2[C@H](NS(=O)(=O)Cc3ccccc3)C(=O)N12 = 63.8
• N#CCC(=O)N[C@@H]1C(=O)N2C(C(=O)O)=C(C[Se]c3ccccc3C(=O)Nc3ccccc3)CS[C@H]12 = 61.7
• O=C(O)C1=C(C[Se]c2ccccc2C(=O)Nc2ccccc2)CS[C@@H]2[C@H](NCc3ccccc3)C(=O)N12 = 17.8
• N#Cc1cc(Cl)cc(CN[C@@H]2C(=O)N3C(C(=O)O)=C(C[Se]c4ccccc4C(=O)Nc4ccccc4)CS[C@H]23)c1 = 42.3
• O=c1c2ccccc2[se]n1-c1ccccc1 = 8.05
• O=C(O)C1=C(C[Se]c2ccccc2C(=O)Nc2ccccc2)CS[C@@H]2[C@H](NS(=O)(=O)c3ccccc3)C(=O)N12 = 48.4
• O=C(Cc1ccccc1)N[C@@H]1C(=O)N2C(C(=O)O)=C(C[Se]c3ccccc3C(=O)Nc3ccccc3)CS[C@H]12 = 23.9
• CS(=O)(=O)N[C@@H]1C(=O)N2C(C(=O)O)=C(C[Se]c3ccccc3C(=O)Nc3ccccc3)CS[C@H]12 = 48.9
• COc1cc(Cl)cc(CN[C@@H]2C(=O)N3C(C(=O)O)=C(C[Se]c4ccccc4C(=O)Nc4ccccc4)CS[C@H]23)c1 = 37.9
• O=C(O)C1=C(C[Se]c2ccccc2C(=O)Nc2ccccc2)CS[C@@H]2[C@H](NCc3cccc(Cl)c3)C(=O)N12 = 60.9
• COc1cc(CN[C@@H]2C(=O)N3C(C(=O)O)=C(C[Se]c4ccccc4C(=O)Nc4ccccc4)CS[C@H]23)cc(OC)c1 = 55.8
• O=C(O)C1=C(C[Se]c2ccccc2C(=O)Nc2ccccc2)CS[C@@H]2[C@H](NCc3cc(F)cc(Cl)c3)C(=O)N12 = 27.8
• O=C(O)C1=C(C[Se]c2ccccc2C(=O)Nc2ccccc2)CS[C@@H]2[C@H](NCc3cc(C(F)(F)F)cc(C(F)(F)F)c3)C(=O)N12 = 61.6
• O=C(O)C1=C(C[Se]c2ccccc2C(=O)Nc2ccccc2)CS[C@@H]2[C@H](NCc3cccs3)C(=O)N12 = 25.2
• O=C(O)C1=C(C[Se]c2ccccc2C(=O)Nc2ccccc2)CS[C@@H]2[C@H](NC(=O)c3cccs3)C(=O)N12 = 49.5
• O=C(O)C1=C(C[Se]c2ccccc2C(=O)Nc2ccccc2)CS[C@@H]2[C@H](NC(=O)c3ccccc3)C(=O)N12 = 22.3

----------
target: Metallo-beta-lactamase type 2 (Bacteria) (UniProt C7C422); experiment: Inhibition of NDM-1 (unknown origin) using nitrocefin as substrate assessed as residual activity at 64 ug/ml preincubated for 15 mins followed by substrate addition by absorbance based assay relative to control; details: dose 64.0 µg/ml
Just so you know, the groups by Activity go like this: bucket 1 = under 50%, bucket 2 = from 50% up to 70%, bucket 3 = 70% and over

• O=C(O)C1=C(C[Se]c2ccccc2C(=O)Nc2ccccc2)CS[C@@H]2[C@H](NS(=O)(=O)c3cccs3)C(=O)N12 = bucket 2
• O=C(O)C1=C(C[Se]c2ccccc2C(=O)Nc2ccccc2)CS[C@@H]2[C@H](NCc3ccccc3Cl)C(=O)N12 = bucket 2
• Cc1cc(Cl)cc(CN[C@@H]2C(=O)N3C(C(=O)O)=C(C[Se]c4ccccc4C(=O)Nc4ccccc4)CS[C@H]23)c1 = bucket 1
• CC1=C(C(=O)O)N2C(=O)[C@@H](NCc3cc(Cl)cc(Cl)c3)[C@H]2SC1 = bucket 3
• O=C(O)C1=C(C[Se]c2ccccc2C(=O)Nc2ccccc2)CS[C@@H]2[C@H](NS(=O)(=O)C3CC3)C(=O)N12 = bucket 1
• O=C(O)C1=C(C[Se]c2ccccc2C(=O)Nc2ccccc2)CS[C@@H]2[C@H](NCc3cc(Cl)cc(Cl)c3)C(=O)N12 = bucket 1
• O=C(O)C1=C(C[Se]c2ccccc2C(=O)Nc2ccccc2)CS[C@@H]2[C@H](NC(=O)n3cnnn3)C(=O)N12 = bucket 3
• O=C(O)C1=C(C[Se]c2ccccc2C(=O)Nc2ccccc2)CS[C@@H]2[C@H](NC(=O)C3CC3)C(=O)N12 = bucket 1
• O=C(O)C1=C(C[Se]c2ccccc2C(=O)Nc2ccccc2)CS[C@@H]2[C@H](NCC3CC3)C(=O)N12 = bucket 3
• CC(=O)N[C@@H]1C(=O)N2C(C(=O)O)=C(C[Se]c3ccccc3C(=O)Nc3ccccc3)CS[C@H]12 = bucket 3
• O=C(O)C1=C(C[Se]c2ccccc2C(=O)Nc2ccccc2)CS[C@@H]2[C@H](NCc3cc(F)cc(F)c3)C(=O)N12 = bucket 1
• O=C(O)C1=C(C[Se]c2ccccc2C(=O)Nc2ccccc2)CS[C@@H]2[C@H](NCc3ccc(Cl)cc3)C(=O)N12 = bucket 2
